Experiment: ATG_ISRE_CIS: Attagene CIS-FACTORIAL HepG2 Assay for human Interferon Regulatory Factor 1 (IRF1) binding to an Interferon-Stimulated Response Element (ISRE) (AID 2282948)
Conditions: HepG2 ISRE cis-reporter (Attagene), mRNA transcription readout; actives raise or lower the signal
The source made the active and inactive calls. The calls were made as follows: active = hit-call score of the fitted dose curve at least 0.9, where 1 is the maximum; inactive = score below 0.9.
Would you mind answering with one of these outcomes? 1.0 (active), 0.0 (inactive)

Below are worked cases with known answers.
> print(dat)
                                   compound  discrete.label
1                                 Cc1ccncc1             0.0
2           CC1COC(=O)O1 (stereo not given)             0.0
3  C[C@H](CCC(=O)O)[C@H]1CC[C@H]2[C@@H]3CC[C@@H]4C[C@H](O)CC[C@]4(C)[C@H]3CC[C@]12C             1.0
4                    CCCCC/C=C\C=C\C(=O)OCC             1.0
5                            CC(=O)CCC(=O)O             0.0
6  CC(C)(C)c1cc(CCC(=O)OCCSCCOC(=O)CCc2cc(C(C)(C)C)c(O)c(C(C)(C)C)c2)cc(C(C)(C)C)c1O             0.0

Which outcome was entered for the compound CCCCCCCCOC(C)=O in this test?
0.0

Which outcome was entered for the compound CCCC(O)C(CC)CO (stereo not given) in this test?
0.0

Which outcome was entered for the compound CC(C)OB(OC(C)C)OC(C)C in this test?
0.0

Which outcome was entered for the compound CN(C)CCC=C1c2ccccc2CCc2ccccc21 in this test?
1.0

Which outcome was entered for the compound CCNC(=S)NCC in this test?
0.0

Which outcome was entered for the compound CCCC1CCOC(C)S1 (stereo not given) in this test?
0.0

Which outcome was entered for the compound CN(C)c1ccc(C=O)cc1 in this test?
0.0

Which outcome was entered for the compound C=C/C(C)=C/C/C=C(\C)CCC=C(C)C in this test?
0.0

Which outcome was entered for the compound CCC(CC)CO in this test?
0.0
